RUN_DESCRIPTION: Microsomal stability assay, human liver microsomes
Format: in vitro ADME
MEASUREMENT_SETUP: pH 7.4, 1 μM compound, 0.5 mg/mL protein, 37° C., read-out: HLM +/− NADPH: Clint (μL/min/mg protein)
MEASURED_PARAMETER: microsomal CLint at 1 μM

### Prompt Dear colleague, I am looking for the recorded microsomal CLint at 1 μM of the following molecule: CC(C)(c1ccc(OCc2cnc(NS(C)(=O)=O)o2)cc1)c1cc(Cl)c(OCCCl)c(C#N)c1
### Response ≥ 48 µL/min/mg

### Prompt Dear colleague, I am looking for the recorded microsomal CLint at 1 μM of the following molecule: CC(C)(c1ccc(OCc2ocnc2S(C)(=O)=O)cc1)c1cc(Cl)c(OCCCl)c(Cl)c1
### Response < 12 µL/min/mg

### Prompt Dear colleague, I am looking for the recorded microsomal CLint at 1 μM of the following molecule: CC(C)(c1ccc(OCc2nnc(S(C)(=O)=O)o2)cc1)c1cc(Cl)c(OCCCCl)c(Cl)c1
### Response ≥ 48 µL/min/mg

### Prompt Dear colleague, I am looking for the recorded microsomal CLint at 1 μM of the following molecule: COc1c(Cl)cc(C(C)(C)c2ccc(OCc3ocnc3S(C)(=O)=O)cc2)cc1Cl
### Response < 12 µL/min/mg

###

In this section, each of the compounds is paired with its reported microsomal CLint at 1 μM.
RUN_DESCRIPTION: Microsomal stability assay, human liver microsomes
Format: in vitro ADME
MEASUREMENT_SETUP: pH 7.4, 1 μM compound, 0.5 mg/mL protein, 37° C., read-out: HLM +/− NADPH: Clint (μL/min/mg protein)

Answered examples (3):
### Prompt Dear colleague, I am looking for the recorded microsomal CLint at 1 μM of the following compound: Cc1nc(S(C)(=O)=O)oc1COc1ccc(C(C)(C)c2cc(Cl)c(OCCCl)c(C#N)c2)cc1
### Response 12 to 48 µL/min/mg

### Prompt Dear colleague, I am looking for the recorded microsomal CLint at 1 μM of the following compound: Cc1cc(C(C)(C)c2ccc(CN3C(=O)N(S(C)(=O)=O)C(C)(C)C3=O)c(C(N)=O)c2)cc(Cl)c1OCCCl
### Response 12 to 48 µL/min/mg

### Prompt Dear colleague, I am looking for the recorded microsomal CLint at 1 μM of the following compound: Cc1nc(N)cc(COc2ccc(C(C)(C)c3cc(Cl)c(OCCCl)c(C#N)c3)cc2)n1
### Response 12 to 48 µL/min/mg

Next:
### Prompt Dear colleague, I am looking for the recorded microsomal CLint at 1 μM of the following compound: CCOc1c(Cl)cc(C(C)(C)c2ccc(OCc3ocnc3S(C)(=O)=O)cc2)cc1Cl
### Response < 12 µL/min/mg

### Prompt Dear colleague, I am looking for the recorded microsomal CLint at 1 μM of the following compound: CC(C)(c1ccc(OCc2cncc(NS(C)(=O)=O)n2)cc1)c1cc(Cl)c(OCCCl)c(C#N)c1
### Response < 12 µL/min/mg

### Prompt Dear colleague, I am looking for the recorded microsomal CLint at 1 μM of the following compound: CC(C)(c1ccc(OCc2cncnc2NS(C)(=O)=O)cc1)c1cc(Cl)c(OCCCl)c(C#N)c1
### Response ≥ 48 µL/min/mg

### Prompt Dear colleague, I am looking for the recorded microsomal CLint at 1 μM of the following compound: CC(C)(c1ccc(OCc2coc(S(C)(=O)=O)n2)cc1)c1cc(Cl)c(OCCCl)c(Cl)c1
### Response < 12 µL/min/mg

### Prompt Dear colleague, I am looking for the recorded microsomal CLint at 1 μM of the following compound: CC(C)(c1ccc(OCc2ocnc2S(C)(=O)=O)cc1)c1cc(Cl)c(OCCC(F)(F)F)c(Cl)c1
### Response < 12 µL/min/mg

### Prompt Dear colleague, I am looking for the recorded microsomal CLint at 1 μM of the following compound: CC(Oc1ccc(C(C)(C)c2cc(Cl)c(OCCCl)c(C#N)c2)cc1)c1ncoc1S(C)(=O)=O (stereo not drawn)
### Response < 12 µL/min/mg

### Prompt Dear colleague, I am looking for the recorded microsomal CLint at 1 μM of the following compound: CC(C)(c1ccc(OCc2cnc(NS(C)(=O)=O)cn2)cc1)c1cc(Cl)c(OCCCl)c(C#N)c1
### Response < 12 µL/min/mg

### Prompt Dear colleague, I am looking for the recorded microsomal CLint at 1 μM of the following compound: CC(C)(c1ccc(OCc2nc(C(N)=O)cs2)cc1)c1cc(Cl)c(OCCCl)c(C#N)c1
### Response < 12 µL/min/mg
